Attribution: paper PMC5719405

Test: Single oral dose pharmacokinetics of metapristone in beagle dogs, non-compartmental analysis
Format: in vivo
Details: beagle, dog, plasma, po; male dogs, p.o. 11.25 mg/kg
experimental.readout: half-life (h)
Give bare numbers, in h.

Ask | Which half-life value is on record for CC#C[C@]1(O)CC[C@H]2[C@@H]3CCC4=CC(=O)CCC4=C3[C@@H](c3ccc(NC)cc3)C[C@@]21C ?
Reply | 5.54

====

Assay: Single oral dose pharmacokinetics of metapristone in beagle dogs, non-compartmental analysis
Assay type: in vivo
Conditions: beagle, dog, plasma, po; male dogs, p.o. 5.6 mg/kg; read-out: MRT (0-t)
experimental.readout: MRT last (h)
One number for each entry, in h.

Ask | Would you kindly share the measured MRT last for CC#C[C@]1(O)CC[C@H]2[C@@H]3CCC4=CC(=O)CCC4=C3[C@@H](c3ccc(NC)cc3)C[C@@]21C [metapristone, N-monodemethyl mifepristone] ?
Reply | 7.16
